Origin of measurements: paper PMC10786891

tested-system: T1, EsCas13d, nuclease-dead (Eubacterium siraeum, UniProt B0MS50, R295A;H300A;R849A;H854A)
T1 sequence: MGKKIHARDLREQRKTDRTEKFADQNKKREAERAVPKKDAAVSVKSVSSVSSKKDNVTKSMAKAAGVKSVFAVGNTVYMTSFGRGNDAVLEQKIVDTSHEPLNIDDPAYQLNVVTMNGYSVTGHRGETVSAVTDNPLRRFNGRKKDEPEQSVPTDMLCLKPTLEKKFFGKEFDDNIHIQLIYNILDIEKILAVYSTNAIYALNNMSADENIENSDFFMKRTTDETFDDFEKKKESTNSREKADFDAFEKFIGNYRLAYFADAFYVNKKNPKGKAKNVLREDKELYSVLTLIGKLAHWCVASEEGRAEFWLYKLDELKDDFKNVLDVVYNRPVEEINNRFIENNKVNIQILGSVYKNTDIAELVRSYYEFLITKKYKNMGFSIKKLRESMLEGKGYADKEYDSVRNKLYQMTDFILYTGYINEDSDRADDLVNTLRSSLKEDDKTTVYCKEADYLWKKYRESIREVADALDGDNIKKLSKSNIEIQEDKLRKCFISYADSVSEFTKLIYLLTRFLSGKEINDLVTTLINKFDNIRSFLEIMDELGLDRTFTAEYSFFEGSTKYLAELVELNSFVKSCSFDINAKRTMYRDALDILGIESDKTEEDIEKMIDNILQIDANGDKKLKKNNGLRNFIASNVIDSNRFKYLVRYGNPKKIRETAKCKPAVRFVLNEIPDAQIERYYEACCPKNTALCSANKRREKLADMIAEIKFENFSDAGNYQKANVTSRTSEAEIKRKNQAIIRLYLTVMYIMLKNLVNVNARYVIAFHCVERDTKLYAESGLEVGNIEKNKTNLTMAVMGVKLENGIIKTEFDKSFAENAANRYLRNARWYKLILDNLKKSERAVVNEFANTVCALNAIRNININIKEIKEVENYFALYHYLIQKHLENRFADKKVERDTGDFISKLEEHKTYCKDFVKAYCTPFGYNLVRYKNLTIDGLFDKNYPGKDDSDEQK
assay-details: crRNA (strand 1, pre-loaded); Mg2+; 40 mM Tris-HCl pH 7.5, 150 mM NaCl, 6 mM MgCl2, 1 mM DTT, 0.1% Tween-20, 0.2 mg/ml BSA; 25 C; 10 min per concentration, then washed
measurement-setup: tags: His6-TwinStrep-SUMO cleaved; N-terminal SNAP kept (SNAP-Surface 488); label: 3' end held by stalled T7 RNA polymerase
recorded-endpoint: pKd
Bear in mind: pKd is minus log10 of a mol/L concentration; give just that figure.

Solved cases below.
1. target 1 MT 5'PFS ACG 3'PFS CGG (mixed) RNA 1: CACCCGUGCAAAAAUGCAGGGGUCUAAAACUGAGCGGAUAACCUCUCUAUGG RNA 2: GGGAAUGGAUCCACAUCUACGAAUUCACGCCAUAGAGAGGUUAUCCGCUCACGGAGAUCGGAAGAGCACACGU :: 7.24
2. target 1 MT 5'PFS GAC 3'PFS CAU (mixed) RNA 1: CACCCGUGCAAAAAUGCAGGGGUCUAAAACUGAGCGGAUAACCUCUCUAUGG RNA 2: GGGAAUGGAUCCACAUCUACGAAUUCGACCCAUAGAGAGGUUAUCCGCUCACAUAGAUCGGAAGAGCACACGU :: 7.67
3. target 2 MT 5'PFS GCU 3'PFS UCC (mixed) RNA 1: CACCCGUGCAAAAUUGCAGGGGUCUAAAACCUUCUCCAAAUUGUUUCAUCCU RNA 2: GGGAAUGGAUCCACAUCUACGAAUUCGCUAGGAUGAAACAAUUUGGAGAAGUCCAGAUCGGAAGAGCACACGU :: 7.40
4. target 1 U10G,G13A (mixed) RNA 1: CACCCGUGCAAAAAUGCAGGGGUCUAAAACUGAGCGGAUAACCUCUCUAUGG RNA 2: GGGAAUGGAUCCACAUCUACGAAUUCGUACCAUAGAGAAGUGAUCCGCUCACCGAGAUCGGAAGAGCACACGU :: 7.38
5. target 1 insA 3' of 15,insA 3' of 2 (mixed) RNA 1: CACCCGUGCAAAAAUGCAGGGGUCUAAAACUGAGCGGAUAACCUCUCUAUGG RNA 2: GGGAAUGGAUCCACAUCUACGAAUUCGUACCAUAGAGAAGGUUAUCCGCUCAACCGAGAUCGGAAGAGCACACGU :: 8.19

Exam item: Return the recorded pKd value; entry: target 3 insC 3' of 4,insG 3' of 2 (mixed) RNA 1: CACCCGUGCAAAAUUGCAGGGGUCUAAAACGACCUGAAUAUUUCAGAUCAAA RNA 2: GGGAAUGGAUCCACAUCUACGAAUUCGUUUUUGAUCUGAAAUAUUCAGCGUGCUGCAGAUCGGAAGAGCACACGU
Marked response: 7.30
